Biological target: Aldose reductase (Oryctolagus cuniculus)
Assay: Tested in vitro for inhibitory activity against partially purified aldose reductase from male rabbit lens
resultType: IC50 (nM)

1) CN1C(=O)Nc2cc3c(cc2C12NC(=O)NC2=O)OCO3 (stereo not drawn) = 1800
2) CN1C(=O)Nc2cc(Cl)ccc2C12NC(=O)NC2=O (stereo not drawn) = 94
3) CN1C(=O)Nc2ccc(Br)cc2C12NC(=O)NC2=O (stereo not drawn) = 52
4) CN1C(=O)Nc2ccc(Cl)cc2C12NC(=O)NC2=O (stereo not drawn) = 56

I = CN1C(=O)Nc2c([N+](=O)[O-])cc(Cl)cc2C12NC(=O)NC2=O (stereo not drawn)
II = CN1C(=O)Nc2c(cc(F)c(F)c2F)C12NC(=O)NC2=O (stereo not drawn)
Q. From the recorded data, which exceeds the other in IC50: I or II ? Let me know the label of the one you choose.
A. II
